System Name: human JAK1 (a.a. 837-1142) (Homo sapiens, UniProt P23458)
Construct: human JAK1 (a.a. 837-1142); His tag (N); made in house; host or cells: insect cells (baculovirus)
Sequence (P23458 849-1154): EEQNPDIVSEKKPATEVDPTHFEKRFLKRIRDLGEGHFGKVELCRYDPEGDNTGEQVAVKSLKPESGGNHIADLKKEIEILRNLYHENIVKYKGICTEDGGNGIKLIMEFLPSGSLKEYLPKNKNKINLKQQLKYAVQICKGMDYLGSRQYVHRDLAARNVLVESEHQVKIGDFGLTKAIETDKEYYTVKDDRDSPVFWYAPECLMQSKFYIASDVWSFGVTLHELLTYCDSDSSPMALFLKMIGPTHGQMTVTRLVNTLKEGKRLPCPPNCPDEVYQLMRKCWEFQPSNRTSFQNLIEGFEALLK
Measurement Notes: In vitro JAK kinase assay (HTRF, phosphorylation of a biotinylated peptide), JAK1
Assay type: biochemical
Experimental Context: Table B1; read-out: JAK1 IC50
Counter-ions that a name gives are not always drawn.
Assignment: determine reported IC50 for the given molecules.
Lab book: enter the figure in nM, no units written.

Lab book: IC50 of O=C(Nc1ccc2cc1CCc1cncc(c1)Nc1ncc(Cl)c(n1)N2)N1CCN(c2ccccc2)CC1 [Example B292, tris(trifluoroacetate)] noted as 32

// IC50 lookup, molecule = NC1CCN(c2ccnc(Nc3ccc4cc3CCc3cccc(c3)Nc3ncc(Cl)c(n3)N4)n2)CC1 [Example B281, tris(trifluoroacetate)] , result: 15

The value of IC50 measured for the molecule CC(C)(C)OC(=O)N[C@@H]1CCN(C(=O)Nc2ccc3cc2CCc2cccc(c2)Nc2ncc(Cl)c(n2)N3)C1 turned out to be 1.7

Value of IC50 reported for the molecule OCc1cc2cc(c1)Nc1nc(ncc1Cl)Nc1cccc(c1)CC2 [Example B24, trifluoroacetate] is 14

Given item O=C(NCc1ccccc1)Nc1ccc2cc1CCc1cccc(c1)Nc1ncc(Cl)c(n1)N2 [Example B93, trifluoroacetate] , the value recorded as its IC50 is 2.6
